Entries annotated with measured TGI
# Tested on: M14 melanoma
# Procedure details: NCI tumour cell line growth inhibition, 48 h

• O=C(/C=C/c1ccc(-c2ccccc2[N+](=O)[O-])o1)NCc1ccc(C(=O)NCCc2ccccc2)cc1 = > 100 µM
• COc1cc(C2C3=C(CCC3=O)Oc3cc4c(cc32)OCO4)cc(OC)c1OC (stereo not given) = > 100 µM
• CC(C)[C@@H]1C=C(c2ccccc2)c2ccccc2C1C(C#N)(C#N)C(C)C (stereo not given in full) = > 100 µM
• CCOC(=O)c1nc2c3c(ncn2n1)Oc1c(c(-c2ccccc2)nn1-c1ccccc1)C3c1ccc(Cl)cc1 (stereo not given) = > 100 µM

// below: TGI requested for another compound
QUERY: Give the measured TGI of "Cc1nnc2cc(C(=O)O)c3ccccc3n2c1=O" .
RESULT: > 10 µM

* * *

# Tested on: EKVX NSCLC
# Procedure details: NCI tumour cell line growth inhibition, 48 h; in the data active = GI50 below about 0.43 µM; inactive = the rest
Choose the fitting class; nothing outside y (active), n (inactive) is accepted.

The examples below pair each entry with its known result.
* COc1ccc(C(=O)c2cc(OC)c(OC)c(OC)c2)cc1OC(C)=O | n
* COc1ccc(OC)c(-c2nc3sccn3c2/C=C2/C(=O)Nc3ccc(Cl)cc32)c1 | n
* CCCCCCCCCCCCn1c(C)nc2ccccc21 | n
* COc1ccc(SC2c3cc(OC)c(OC)cc3Oc3nc(N)c(C#N)c(N)c32)cc1 (stereo not given) | n
* CN1/C(=C\C(I)C(I)C2=[N+](C)c3ccccc3C2(C)C)C(C)(C)c2ccccc21 (stereo not given) | y
* CCN(CC)CCN1C(=O)c2c(c(C)c3c(oc4cc(O)ccc43)c2C)C1=O | n
* C=C1CCC2C3(C)COC(c4ccc(NC(C)=O)cc4)OC3CCC2(C)C1C/C=C1/C(=O)OCC1O (stereo not given) | n
* O=C1NC(=O)/C(=C/C=C/c2ccccc2)S1 | n
* Cc1ccc(Cl)cc1Nc1nc(C(F)(F)F)ccc1C(=O)Nc1cccc(C(F)(F)F)c1 | n

With those in mind, consider the next molecule.
QUERY: Identify the outcome logged in this assay for the molecule shown: "CCSc1oc(-c2ccccc2)nc1[P+](c1ccccc1)(c1ccccc1)c1ccccc1"
RESULT: y

* * *

# System: UACC-62 melanoma
# Procedure details: NCI tumour cell line growth inhibition, 48 h; in the data active means GI50 below about 0.43 µM; inactive means the rest
// classify into class 1 (active), class 0 (inactive)

Example entries and their recorded answers appear below.
* COC(=O)C[CH](C(=O)OC)[Ge]([CH3])([CH3])[S]c1ccccc1 (configuration not stated) | class 0
* Nc1ccc(-c2nc3ccc4[nH]ncc4c3c3c2CCCC3)cc1F | class 0
* CC1(C)CCC[C@]23C(=O)O[C@](O)(C(=O)C4=C[C@@](C)(/C=C/CCCc5ccc6ccc7cccc8ccc5c6c78)CC[C@@]42O)[C@@H]13 | class 1
* COc1ccc(/C(C)=C(\c2ccc(Cl)cc2)c2ccc(OCCN3CCCC3)cc2)cc1 | class 0
* C=C(C=O)C1CC(=O)C(C(=O)OC)[C@@H]2O[C@@](C)(CC2=O)C[C@@H]2OC(=O)[C@]3(O[C@@H]23)[C@@H](C(=O)OC)C1 (some centres not stated) | class 0

QUERY: Call for entry "Cc1ccc(Cl)cc1Nc1nc(C(F)(F)F)ccc1C(=O)Nc1cccc(C(F)(F)F)c1" :
RESULT: class 0

QUERY: Field: outcome | Entry: C#CCN1C(=O)/C(=c2\sc3n(c2=O)C2C(NN=3)N(CC)C(=O)N2CC)c2ccccc21 (configuration not stated)
RESULT: class 0

QUERY: Recorded call for "C/C1=C\[C@H](C)C[C@H](C)OC(=O)C[C@H](c2ccc(O)cc2)NC(=O)[C@@H](Cc2c(Br)[nH]c3ccccc23)N(C)C(=O)[C@H](C)NC(=O)[C@@H](C)C1" ?
RESULT: class 1

* * *

# Test system: BT-549 breast
# Procedure details: NCI tumour cell line growth inhibition, 48 h; in the data active = GI50 below about 0.43 µM; inactive = the rest
Write down the outcome that applies. Available outcomes: true (1) for active, false (0) for inactive

Study these solved cases before continuing.
* O=C(/C=C/c1ccc(C(F)(F)F)cc1)c1ccc(Nc2nc(NCCO)nc(NCCO)n2)cc1 | false (0)
* CC1(C)CCC[C@]23C(=O)O[C@](O)(C(=O)C4=C[C@@](C)(/C=C/CCCc5ccc6ccc7cccc8ccc5c6c78)CC[C@@]42O)[C@@H]13 | true (1)
* C#CCN1C(=O)/C(=c2\sc3n(c2=O)C2C(NN=3)N(CC)C(=O)N2CC)c2ccccc21 (stereo not drawn) | false (0)
* COc1ccc(-c2nn(-c3cccc(Cl)c3)cc2C=C(C#N)C#N)cc1 | false (0)
* CCSc1oc(-c2ccccc2)nc1[P+](c1ccccc1)(c1ccccc1)c1ccccc1 | true (1)

QUERY: Write down the call the test reported for this compound. Item: COc1cc(C)c(C(=O)O[C@H]2[C@H](O[C@H]3[C@@H](O)COC(O[C@H]4C[C@H]5[C@@H]6CC=C7C[C@@H](O)CC[C@]7(C)[C@H]6CC[C@]5(C)[C@H]4[C@H](C)C(=O)CCC(C)C)[C@@H]3OC(C)=O)OC[C@@H](O)[C@@H]2O)c(C)c1 (stereo partly drawn)
RESULT: true (1)

QUERY: # lookup: test call for "COc1ccc(N2CCN(C(=O)c3ccccc3Nc3ccnc(C(F)(F)F)c3)CC2)cc1"
RESULT: false (0)

QUERY: What classification did "CCN1CCN(c2nc(NNC(=O)Cc3ccccc3)nc(N3CCN(C(c4ccccc4)c4ccccc4)CC3)n2)CC1" end up with in this test?
RESULT: false (0)

QUERY: Given C/C(=N\NC(N)=O)C(CN1CCCCC1)C(c1ccccc1)c1c(O)c2ccccc2oc1=O (stereo not drawn) , state the outcome it received in this test.
RESULT: false (0)

QUERY: # outcome recorded in this test, key = "CC(C)C[C@H](NC(=O)[C@H](CCc1ccccc1)NC(=O)CN1CCOCC1)C(=O)N[C@@H](Cc1ccccc1)C(=O)N[C@@H](CC(C)C)C(=O)[C@@]1(C)CO1"
RESULT: true (1)

QUERY: Hi, sorry to bother you, what did the test record for "CCCCCCCCCCCCn1c(C)nc2ccccc21" ?
RESULT: false (0)

QUERY: Recorded test call requested for "COc1cc(-c2cc(-c3ccc(N(C)C)cc3)nc(N3CCOCC3)c2C#N)cc(OC)c1OC"
RESULT: false (0)

QUERY: State the result this test recorded for "CCOC(=O)c1sc(-c2ccc(OS(=O)(=O)c3cccs3)c(C=O)c2)nc1C" .
RESULT: false (0)

* * *

TGI overview
# System: HCC-2998 colon
# Procedure details: NCI tumour cell line growth inhibition, 48 h

Look over these answered cases.
• CC1=CC(O)C(O)C2(C)C1CC1OC(=O)C(O)C3C(C)C(O)C4(O)OCC13C42 (configuration not stated) = 126 µM
• CC1(C)CCC[C@]23C(=O)O[C@](O)(C(=O)C4=C[C@@](C)(/C=C/CCCc5ccc6ccc7cccc8ccc5c6c78)CC[C@@]42O)[C@@H]13 = 0.323 µM
• Cc1cc(NS(=O)(=O)c2ccc(Nc3c4ccccc4nc4c(C(=O)Nc5ccc(S(=O)(=O)N=C(N)N)cc5)cccc34)cc2)no1 = > 100 µM
• Cn1c(=O)c2c(-c3ccccc3)onc2n(C)c1=O = 90.2 µM
• CCOC1OCCCC1Br (configuration not stated) = > 100 µM
• O=P(Oc1ccc(Cl)cc1)(Oc1ccc(Cl)cc1)N1CC1 = > 10 µM

Shifting focus to the compound that follows.
QUERY: Quick one: TGI of "OC(c1ccc(Cl)cc1)(c1ccc(Cl)cc1)C(O)(c1ccc(Cl)cc1)c1ccc(Cl)cc1" ?
RESULT: > 100 µM

* * *

# System: UO-31 renal
# Procedure details: NCI tumour cell line growth inhibition, 48 h
Use 30 µM as the dividing line for TGI, with the line itself on the yes side and lower values as no.

• O=C(/C=C/c1ccc(C(F)(F)F)cc1)c1ccc(Nc2nc(NCCO)nc(NCCO)n2)cc1 = no
• COc1cc(C2C3=C(CCC3=O)Oc3cc4c(cc32)OCO4)cc(OC)c1OC (stereo unspecified) = yes
• C/C(=C\c1ccc(Cl)cc1)C(C)(C)C(=O)O = yes

QUERY: For this compound, is measured TGI 30 µM or higher? "CCOc1ccc2[nH]c3c(C)c4cc[n+](C)cc4c(C)c3c2c1"
RESULT: yes

QUERY: Please check the record "CC1(C)N=C(N)N=C(N)N1c1cccc(C#N)c1" and state if its TGI is at or above 30 µM.
RESULT: yes

QUERY: Would you say "COC(=O)C(=O)C1(CCC(C)=O)c2ccccc2-c2ccccc21" shows TGI at minimum 30 µM?
RESULT: yes

QUERY: Does the reported TGI for "Cc1nc(C)c(C(=O)Nc2cccc3c2C(=O)NC3=O)cc1C(=O)Nc1cccc2c1C(=O)NC2=O" fall at or above the 30 µM mark?
RESULT: yes
